# targetOfAssay: PDE9 (Homo sapiens (Human))
# procedureText: PDE9 inhibition assay
# Type: biochemical
attributeMeasured: inhibition at 10 µM (%)

# count of solved cases: 5
compound: CCCc1ncc2c(=O)n(Cc3cccc(F)c3)ccn12 [Example 1]
attributeMeasured: inhibition at 10 µM
measurementUnits: %
numericResult: -12
//
compound: Cc1cn2c(C3CCOCC3)ncc2c(=O)n1Cc1ccc(OC(F)F)cc1 [Example 40]
attributeMeasured: inhibition at 10 µM
measurementUnits: %
numericResult: -25
//
compound: COc1ccc(Cn2c(C)cn3c(C4CC(C)OC(C)C4)ncc3c2=O)cc1 (stereo not shown) [Example 84]
attributeMeasured: inhibition at 10 µM
measurementUnits: %
numericResult: -5
//
compound: COc1ccc(Cn2c(C)cn3c(N4CCOCC4)ncc3c2=O)cc1 [Example 93]
attributeMeasured: inhibition at 10 µM
measurementUnits: %
numericResult: 23
//
compound: COc1ccc(Cn2c(C)cn3c([C@@]4(C)C[C@@H]5CC[C@H]4O5)ncc3c2=O)cc1 [Example 70]
attributeMeasured: inhibition at 10 µM
measurementUnits: %
numericResult: -11

P = O=c1c2cnc(C3CCOCC3)n2ccn1Cc1cccc(F)c1 [Example 9]
Q = Cc1cn2c(C3CCOCC3)ncc2c(=O)n1Cc1ccc(F)cc1 [Example 24]
R = Cc1cn2c(C3(C)CCOCC3)ncc2c(=O)n1Cc1cccc(F)c1 [Example 26]
S = O=c1c2cnc(C3CCOCC3)n2ccn1CC1CCCCCC1 [Example 12]
T = COc1ccc(Cn2c(C)cn3c(C4COC(C)C4)ncc3c2=O)cc1 (stereo not shown) [Example 89]
Exercise: Exam item: list the entries in increasing order of inhibition at 10 µM. Write the labels out in the order the request specifies.
Solution: R, Q, T, P, S
(R: -2%, Q: -1%, T: 1%, P: 2%, S: 12%)

----------
# targetOfAssay: PDE9 (Homo sapiens (Human), UniProt O76083)
# Sequence (O76083 whole entry): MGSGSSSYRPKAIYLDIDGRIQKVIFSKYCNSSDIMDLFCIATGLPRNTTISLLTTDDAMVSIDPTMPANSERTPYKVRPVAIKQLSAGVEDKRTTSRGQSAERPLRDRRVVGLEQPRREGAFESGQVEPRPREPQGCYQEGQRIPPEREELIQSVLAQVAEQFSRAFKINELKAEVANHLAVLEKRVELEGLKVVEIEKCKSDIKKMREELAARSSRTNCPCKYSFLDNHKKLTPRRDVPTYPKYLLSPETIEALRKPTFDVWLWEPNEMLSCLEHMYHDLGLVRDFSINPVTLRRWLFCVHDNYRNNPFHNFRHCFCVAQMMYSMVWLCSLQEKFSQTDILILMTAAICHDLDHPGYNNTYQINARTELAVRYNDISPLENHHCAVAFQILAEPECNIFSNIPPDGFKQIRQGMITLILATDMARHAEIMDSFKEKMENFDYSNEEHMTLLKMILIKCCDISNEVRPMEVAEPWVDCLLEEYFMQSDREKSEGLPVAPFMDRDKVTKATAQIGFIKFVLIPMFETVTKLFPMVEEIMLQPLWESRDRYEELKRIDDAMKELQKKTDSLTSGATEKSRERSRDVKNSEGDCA
# procedureText: PDE9 inhibition assay
# Format: biochemical
attributeMeasured: inhibition at 10 µM (%)

Known results for molecules:
molecule: COc1ccc(Cn2c(C)cn3c(C4CCOCC4)ncc3c2=O)cn1 [Example 57]
measurementUnits: %
inhibition at 10 µM: -5
--
molecule: Cc1cn2c(C3CCOCC3)ncc2c(=O)n1C(C)C [Example 61]
measurementUnits: %
inhibition at 10 µM: 4
--
molecule: Cc1cn2c(C3CCOCC3)ncc2c(=O)n1CC1CCCCCC1 [Example 65]
measurementUnits: %
inhibition at 10 µM: 11
--
molecule: CO[C@H]1CC[C@@H](Cn2c(C)cn3c(C4CCOCC4)ncc3c2=O)CC1 [Example 67]
measurementUnits: %
inhibition at 10 µM: 10
--
molecule: COc1cc(Cn2c(C)cn3c(C4CCOCC4)ncc3c2=O)ccc1Cl [Example 48]
measurementUnits: %
inhibition at 10 µM: 10

P = COc1ccc(Cn2c(C)cn3c([C@H](C)c4ccccc4)ncc3c2=O)cc1 [Example 72]
Q = Cc1cn2c(C3CCOCC3)ncc2c(=O)n1Cc1ccccc1 [Example 16]
Exercise: # compare inhibition at 10 µM for P vs Q ; return the one with the smaller value // return label of chosen record
Solution: P
(P: 9%, Q: 19%)

----------
# targetOfAssay: PDE9 (Homo sapiens (Human), UniProt O76083)
# procedureText: PDE9 inhibition assay
# Assay type: biochemical
# conditionNotes: at 10 microM
attributeMeasured: % inhibition of PDE9 at 10 microM (%)

a = Cc1cn2c([C@@H]3CCCOC3)ncc2c(=O)n1Cc1cccc(F)c1 (single isomer, unassigned; isomer 1) [100, isomer 1]
b = Cc1cn2c([C@@H]3C[C@@H]3C)ncc2c(=O)n1Cc1cccc(F)c1 (single isomer, unassigned; isomer 1) [35, isomer 1]
c = Cc1cn2c(C3C[C@H]3F)ncc2c(=O)n1Cc1cccc(F)c1 (single isomer, unassigned; isomer 2) [38, isomer 2]
d = Cc1cn2c([C@H]3C[C@H]3C)ncc2c(=O)n1Cc1cccc(F)c1 (single isomer, unassigned; isomer 4) [35, isomer 4]
Exercise: Reorder the records above by % inhibition of PDE9 at 10 microM so that values decrease. Response field: labels, in requested order.
Solution: a, d, c, b

----------
Below are pIC50 values recorded for PDE1B (Homo sapiens (Human)).
pIC50: −log10 of the molar value.
attributeMeasured: pIC50

Field: example entries. Status: answers known.
compound: Cc1cn2c([C@@H]3CCCCO3)ncc2c(=O)n1Cc1cccc(F)c1 (single isomer, unassigned; isomer 1) [30, isomer 1]
targetOfAssay: PDE1B (Homo sapiens (Human))
Sequence (Q01064 whole entry): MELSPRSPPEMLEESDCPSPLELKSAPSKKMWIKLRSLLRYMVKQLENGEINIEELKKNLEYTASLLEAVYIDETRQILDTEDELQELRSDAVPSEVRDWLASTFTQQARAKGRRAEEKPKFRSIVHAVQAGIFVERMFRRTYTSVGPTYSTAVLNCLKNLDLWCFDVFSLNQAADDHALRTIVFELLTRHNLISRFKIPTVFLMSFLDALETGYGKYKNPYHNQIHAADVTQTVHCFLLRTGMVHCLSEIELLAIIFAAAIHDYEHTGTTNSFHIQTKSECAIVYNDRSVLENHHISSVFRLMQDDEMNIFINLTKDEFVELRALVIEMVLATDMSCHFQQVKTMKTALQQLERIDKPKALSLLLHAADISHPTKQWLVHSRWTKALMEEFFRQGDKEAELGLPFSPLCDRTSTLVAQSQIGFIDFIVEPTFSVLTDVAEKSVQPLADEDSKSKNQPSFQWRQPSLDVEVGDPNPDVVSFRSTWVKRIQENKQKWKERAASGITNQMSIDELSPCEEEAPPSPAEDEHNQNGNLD
pIC50: 6.21
--
compound: Cc1cn2c(N3CCC4OCCC43)ncc2c(=O)n1Cc1cccc(F)c1 (single isomer, unassigned; isomer 2) [99, isomer 2]
targetOfAssay: PDE1B (Homo sapiens (Human))
pIC50: 6.12
--
compound: COc1ccc(Cn2c(C)cn3c(C4(C)CCN(C)CC4)ncc3c2=O)cc1
targetOfAssay: PDE1B (Homo sapiens (Human))
pIC50: 5.84

I = Cc1cn2c(N3CCC4OCCC43)ncc2c(=O)n1Cc1cccc(F)c1 (single isomer, unassigned; isomer 1) [99, isomer 1]
II = Cc1cc(Cn2c(C)cn3c(C4CCOCC4)ncc3c2=O)no1
Exercise: Of the pair I and II , name the member with the lesser recorded pIC50. Could you answer with the label of the item you picked?
Solution: II
(II: 5.82, I: 6.87)

----------
# targetOfAssay: UniProt:O76083
# procedureText: PDE9 inhibition assay
# Assay type: biochemical
attributeMeasured: inhibition at 10 µM (%)

Would you please look over these solved cases?
mol: COc1ccc(Cn2c(C)cn3c(C(C)(C)O)ncc3c2=O)cc1
inhibition at 10 µM / %: -11
//
mol: Cc1nc(Cn2c(C)cn3c(C4CCOCC4)ncc3c2=O)cs1
inhibition at 10 µM / %: 6
//
mol: CCCn1c(C)cn2c(C3CCOCC3)ncc2c1=O
inhibition at 10 µM / %: -13
//
mol: CCCc1ncc2c(=O)n(Cc3ccc(OC)cc3)c(C)cn12
inhibition at 10 µM / %: 7
//
mol: CO[C@H]1CC[C@H](Cn2c(C)cn3c(C4CCOCC4)ncc3c2=O)CC1
inhibition at 10 µM / %: 5

A = Cc1cn2c(C3(F)CCOCC3)ncc2c(=O)n1Cc1cccc(F)c1
B = Cc1cn2c(C3(C#N)CCOCC3)ncc2c(=O)n1Cc1cccc(F)c1
C = CCn1c(C)cn2c(C3CCOCC3)ncc2c1=O
Exercise: Please put the entries in order of rising inhibition at 10 µM. Provide the labels, sequenced as the question asks.
Solution: C, B, A

----------
# targetOfAssay: PDE9 (Homo sapiens (Human), UniProt O76083)
# procedureText: PDE9 inhibition assay
# Assay type: biochemical
attributeMeasured: inhibition at 10 µM (%)

mol: Cc1cn2c(C3CCOCC3)ncc2c(=O)n1Cc1cscn1
measurementUnits: %
numericResult: 18
//
mol: Cc1cn2c(C3CCOCC3)ncc2c(=O)n1Cc1ccc2c(c1)OCO2
measurementUnits: %
numericResult: 12

I = COc1ccc(Cn2c(C)cn3c(N4CCOC[C@H]4C)ncc3c2=O)cc1
II = Cc1cn2c(C3CCOCC3)ncc2c(=O)n1Cc1ccc(OCC2CC2)cc1
Exercise: Could you check which of I and II has a smaller value for inhibition at 10 µM? Provide the label of your selected option as the answer.
Solution: I
